- run.description: Quantitative High-Throughput drug screen in 47 multiple myeloma cell lines against the NCATS MIPE library collection: JIM3_ECACC cell viability assay (AID 1918963; further: nearly all actives have a fitted effect of over 35% in size)
- condition.description: JIM3 myeloma viability, CellTiter-Glo ATP, 48 h; series mostly up to 45.8 µM
Results filed as inconclusive are left out. Active and inactive are the calls of the source. The call rests on the fitted dose curve; in most records, active means well fitted cell-killing curve with a large enough effect; inconclusive means small, poorly fitted or top-dose-only effect; inactive means no such curve, though single readings can be large or run the other way.
Classes used: 1.0 (active), 0.0 (inactive)

{"columns": ["compound", "label.class"],
 "data": [
  ["CN1CCCC(n2nc(Cc3ccc(Cl)cc3)c3ccccc3c2=O)CC1 (stereo unspecified)", 1.0],
  ["O=C(N[C@H](CO)[C@H](O)c1ccc([N+](=O)[O-])cc1)C(Cl)Cl", 0.0],
  ["C[C@]12C=CC(=O)C=C1CC[C@@H]1[C@@H]2C(=O)C[C@@]2(C)[C@H]1CC[C@]2(O)C(=O)CO", 0.0],
  ["COC(c1ccccc1)(c1ccccc1)[C@H](Oc1nc(C)cc(C)n1)C(=O)O", 0.0],
  ["COc1cccc(N(C)C(=S)Oc2ccc3c(c2)CCCC3)n1", 0.0],
  ["N[C@@H](C(=O)N[C@@H]1C(=O)N2C(C(=O)O)=C(Cl)CS[C@H]12)c1ccccc1", 0.0],
  ["OC(Cn1cncn1)(Cn1cncn1)c1ccc(F)cc1F", 0.0],
  ["CC1CC2C3CCC4=CC(=O)C=C[C@]4(C)[C@@]3(F)[C@@H](O)C[C@]2(C)[C@@]1(O)C(=O)CO (stereo partly specified)", 0.0],
  ["Cn1nnc2c(C(N)=O)ncn2c1=O", 0.0],
  ["O[C@@H](CNC[C@H](O)[C@H]1CCc2cc(F)ccc2O1)[C@@H]1CCc2cc(F)ccc2O1", 1.0],
  ["O=C(O)c1cccnc1", 0.0],
  ["CN(Cc1cc(Br)cc(Br)c1N)C1CCCCC1", 0.0],
  ["Nc1nc(=S)c2[nH]cnc2[nH]1", 1.0],
  ["COc1ncnc(NS(=O)(=O)c2ccc(N)cc2)c1OC", 0.0],
  ["NC(=O)c1ccc2[nH]ccc2c1", 0.0],
  ["O=C(O)c1cc(=O)[nH]c(=O)[nH]1", 0.0],
  ["C1CCC(C(CC2CCCCN2)C2CCCCC2)CC1 (stereo unspecified)", 1.0],
  ["Cn1c(=O)c2c(ncn2CC(O)CO)n(C)c1=O (stereo unspecified)", 0.0],
  ["O=NN(CCCl)C(=O)NC1CCCCC1", 0.0],
  ["Cc1ncc([N+](=O)[O-])n1CCO", 0.0],
  ["CO[C@@H]1[C@@H](OC(N)=O)[C@@H](O)[C@H](Oc2ccc3c(O)c(NC(=O)c4ccc(O)c(CC=C(C)C)c4)c(=O)oc3c2C)OC1(C)C", 1.0],
  ["CC(C)(C#N)c1cc(Cn2cncn2)cc(C(C)(C)C#N)c1", 0.0],
  ["C[C@@H]1C[C@H]2[C@@H]3CCC4=CC(=O)C=C[C@]4(C)[C@@]3(Cl)[C@@H](O)C[C@]2(C)[C@@]1(OC(=O)c1ccco1)C(=O)CCl", 1.0],
  ["COC(=O)Nc1nc2ccc(C(=O)c3ccccc3)cc2[nH]1", 1.0],
  ["O=C(O)c1ccc(-n2nc(-c3ccccc3O)nc2-c2ccccc2O)cc1", 1.0],
  ["COc1cc([C@@H]2c3cc4c(cc3[C@H](O)[C@H]3COC(=O)[C@H]23)OCO4)cc(OC)c1OC", 0.0],
  ["NCCCC(O)(P(=O)(O)O)P(=O)(O)O", 0.0],
  ["CN(C)CCc1c[nH]c2ccc(CS(=O)(=O)N3CCCC3)cc12", 0.0],
  ["COC(=O)Nc1nc2ccc(S(=O)c3ccccc3)cc2[nH]1 (stereo unspecified)", 1.0],
  ["COc1ccc(-c2ccc3cc(C(=O)O)ccc3c2)cc1C12CC3CC(CC(C3)C1)C2", 0.0],
  ["CC1=NN(c2ccccc2)C(=O)C1", 0.0],
  ["CC(C)Cn1cnc2c(N)nc3ccccc3c21", 0.0],
  ["Cc1cccc(N(C)C(=S)Oc2ccc3ccccc3c2)c1", 0.0],
  ["Nc1ccc(S(=O)(=O)Nc2ccccn2)cc1", 0.0],
  ["C#CCN[C@@H]1CCc2ccccc21", 0.0],
  ["CN1CCN(c2c(F)cc3c(=O)c(C(=O)O)cn(CCF)c3c2F)CC1", 0.0],
  ["C[C@@H](NCCCc1cccc(C(F)(F)F)c1)c1cccc2ccccc12", 1.0],
  ["CCCc1cc(C(N)=S)ccn1", 0.0],
  ["COc1cc(NCc2ccc3nc(N)nc(N)c3c2C)cc(OC)c1OC", 1.0],
  ["CCOCC(O)COc1ccc(NC(=O)CC[S+](C)C)cc1 (stereo unspecified)", 0.0],
  ["C[C@@H]1CN(c2c(F)c(N)c3c(=O)c(C(=O)O)cn(C4CC4)c3c2F)C[C@H](C)N1", 0.0],
  ["S=P(N1CC1)(N1CC1)N1CC1", 0.0],
  ["O=C(O)c1cn(C2CC2)c2cc(N3CCNCC3)c(F)cc2c1=O", 0.0],
  ["CC[C@H](NC(C)C)[C@H](O)c1ccc(O)c2[nH]c(=O)ccc12", 0.0],
  ["CCOc1cc(N)c(Cl)cc1C(=O)NCC1CN(Cc2ccc(F)cc2)CCO1 (stereo unspecified)", 0.0],
  ["O=c1cc(O)c(Cl)c[nH]1", 0.0]
]}

----------
- study.system: Protein phosphatase 1D (Homo sapiens)
- run.description: RapidFire Mass Spectrometry qHTS Assay for Modulators of WT P53-Induced Phosphatase 1 (WIP1) (AID 1347424);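 further: amount of dephosphorylated VEPPL-S-QETFS peptide product formed by WIP1; plate controls were DMSO wells for no effect and GSK830371 inhibitor control at 10 µM for full effect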
- condition.description: WIP1 dephosphorylation of phosphopeptide, RapidFire MS; series mostly up to 63 µM
- Text: Assay Provider (PI): Nathan Coussens Ph. D. National Center for Advancing Translational Sciences (NCATS), Rockville, MD National Institute of Health (NIH), Bethesda, Maryland […] Here, we describe two orthogonal biochemical WIP1 activity assays that utilize phosphopeptides from native WIP1 substrates. We optimized a RapidFire MS assay to quantify the enzymatically dephosphorylated peptide reaction product in a 384-well format. […]
Inconclusive results are not listed. The source made the active and inactive calls. Calls follow the shape of the dose curve; as a rule, active = well fitted inhibition curve with a large enough effect; inconclusive = small, poorly fitted or top-dose-only effect; inactive = no such curve, though single readings can be large or run the other way.

{"columns": ["compound", "outcome"],
 "data": [
  ["CN1CCCC(n2nc(Cc3ccc(Cl)cc3)c3ccccc3c2=O)CC1 (configuration not stated)", "inactive"],
  ["Nc1nc(N)nc(-c2cc(Cl)ccc2Cl)n1", "inactive"],
  ["NCCCC(O)(P(=O)(O)O)P(=O)(O)O", "inactive"],
  ["COc1ccc(C(=O)CC(=O)c2ccc(C(C)(C)C)cc2)cc1", "inactive"],
  ["CC(=O)[C@H]1CC[C@H]2[C@@H]3CC=C4C[C@@H](O)CC[C@]4(C)[C@H]3CC[C@]12C", "inactive"],
  ["CC(=O)CC(c1ccccc1)c1c(O)c2ccccc2oc1=O (configuration not stated)", "inactive"],
  ["CCOC(=O)c1ccc(OC(=O)CCCCCN=C(N)N)cc1", "inactive"],
  ["CNCC[C@H](Oc1cccc2ccccc12)c1cccs1", "inactive"],
  ["CNS(=O)(=O)Cc1ccc2[nH]cc(CCN(C)C)c2c1", "inactive"],
  ["CC(C)Cn1cnc2c(N)nc3ccccc3c21", "inactive"],
  ["Cc1cc(NS(=O)(=O)c2ccc(N)cc2)no1", "inactive"],
  ["C1CCC(C(CC2CCCCN2)C2CCCCC2)CC1 (configuration not stated)", "inactive"]
]}

----------
- run.description: qHTS of pediatric cancer cell lines to identify multiple opportunities for drug repurposing: Confirmatory screen for U-2 OS cells (AID 1347122); further: nearly all actives have a fitted effect of over 65% in size
- condition.description: U-2 OS osteosarcoma cell viability; series mostly up to 45.9 µM
Inconclusive results are not listed. Calls of active or inactive are those of the source. Calls follow the shape of the dose curve; as a rule, active = well fitted cell-killing curve with a large enough effect; inconclusive = small, poorly fitted or top-dose-only effect; inactive = no such curve, though single readings can be large or run the other way.
Classes used: y = active, n = inactive

{"columns": ["molecule", "label.class"],
 "data": [
  ["Oc1c(Cl)cc(Cl)c2cccnc12", "y"],
  ["COc1ccc(-c2ccc3cc(C(=O)O)ccc3c2)cc1C12CC3CC(CC(C3)C1)C2", "y"],
  ["COC(=O)Nc1nc2ccc(C(=O)c3ccccc3)cc2[nH]1", "y"],
  ["Nc1[nH]c(=O)ncc1F", "n"],
  ["CS(=O)(=O)c1ccc([C@@H](O)[C@@H](CO)NC(=O)C(Cl)Cl)cc1", "n"],
  ["CNCC[C@H](Oc1cccc2ccccc12)c1cccs1", "n"],
  ["CN(C)c1ccc(C(=C2C=CC(=[N+](C)C)C=C2)c2ccc(N(C)C)cc2)cc1", "y"],
  ["C[C@@H]1C[C@H]2[C@@H]3CCC4=CC(=O)C=C[C@]4(C)[C@@]3(Cl)[C@@H](O)C[C@]2(C)[C@@]1(OC(=O)c1ccco1)C(=O)CCl", "y"],
  ["Cn1nnc2c(C(N)=O)ncn2c1=O", "n"],
  ["COc1nc(N)nc2c1ncn2[C@@H]1O[C@H](CO)[C@@H](O)[C@@H]1O", "n"],
  ["O=C(NCC1CN(c2ccc(N3CCOCC3=O)cc2)C(=O)O1)c1ccc(Cl)s1 (configuration not stated)", "n"],
  ["Nc1nc(N)c2nc(CNc3ccc(C(=O)NC(CCC(=O)O)C(=O)O)cc3)cnc2n1 (configuration not stated)", "n"]
]}
